FYI, the data here is from patent US20140056903A1.

Target: T1, human GFRα3 expressed with a C-terminal mFc tag (human)
T1 construct: also called hGFRα3-mFc
T1 chain: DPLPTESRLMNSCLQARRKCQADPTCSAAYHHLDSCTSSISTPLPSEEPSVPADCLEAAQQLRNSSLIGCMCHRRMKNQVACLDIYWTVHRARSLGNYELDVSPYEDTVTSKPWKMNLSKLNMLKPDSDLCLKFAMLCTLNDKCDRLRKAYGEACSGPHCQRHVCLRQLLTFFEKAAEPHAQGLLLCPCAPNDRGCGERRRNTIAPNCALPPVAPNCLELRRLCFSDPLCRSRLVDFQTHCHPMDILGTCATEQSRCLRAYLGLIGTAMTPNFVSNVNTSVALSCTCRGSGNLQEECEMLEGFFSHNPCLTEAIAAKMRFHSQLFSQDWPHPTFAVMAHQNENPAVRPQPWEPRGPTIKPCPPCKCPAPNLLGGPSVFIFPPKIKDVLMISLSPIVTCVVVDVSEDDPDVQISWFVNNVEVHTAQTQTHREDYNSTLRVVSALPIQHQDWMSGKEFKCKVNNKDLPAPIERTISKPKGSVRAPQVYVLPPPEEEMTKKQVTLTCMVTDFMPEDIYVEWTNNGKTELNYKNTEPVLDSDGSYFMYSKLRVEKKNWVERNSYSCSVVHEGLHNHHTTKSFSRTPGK
Test: SPR, Ab captured, 37C
Text: […]
t1/2 below 200 min gives no; t1/2 at or above it gives yes.

t1/2 >= 200 min for H4H2354S (antibody, human IgG4, V domains shown, human IgG4 Fc (H4H); also called H4H2354S-1) VH: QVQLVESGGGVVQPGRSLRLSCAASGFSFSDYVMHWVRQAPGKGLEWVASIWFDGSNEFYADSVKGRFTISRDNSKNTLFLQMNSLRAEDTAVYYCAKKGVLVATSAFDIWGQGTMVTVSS VL: DIQLTQSPSSLSASVGDRVTITCRASQSINNYLNWYHQKPGKAPKLLIYAASSLQSGVPSRFSGSGSGTDYTLTISSLQPEDFGNYYCQQSYRTSMYTFGQGTKVEIK ? no

How about H4H2357S (antibody, human IgG4, V domains shown, human IgG4 Fc (H4H)) VH: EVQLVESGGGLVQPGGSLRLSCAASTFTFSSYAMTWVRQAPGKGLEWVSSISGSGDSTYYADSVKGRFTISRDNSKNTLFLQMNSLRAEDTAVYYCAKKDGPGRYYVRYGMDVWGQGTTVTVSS VL: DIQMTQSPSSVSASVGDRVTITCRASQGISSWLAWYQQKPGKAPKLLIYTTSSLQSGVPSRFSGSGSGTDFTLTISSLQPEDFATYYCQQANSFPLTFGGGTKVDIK ? no

Same again, this time with H4H2292S (antibody, human IgG4, V domains shown, human IgG4 Fc (H4H)) VH: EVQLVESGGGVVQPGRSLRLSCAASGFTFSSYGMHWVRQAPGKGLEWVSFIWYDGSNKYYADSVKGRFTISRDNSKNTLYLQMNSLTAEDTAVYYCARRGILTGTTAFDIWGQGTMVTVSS VL: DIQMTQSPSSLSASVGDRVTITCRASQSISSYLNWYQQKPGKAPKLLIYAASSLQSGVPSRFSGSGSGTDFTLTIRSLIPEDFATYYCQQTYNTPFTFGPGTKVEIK yes

Note, next up: H4H2293P (antibody, human IgG4, V domains shown, human IgG4 Fc (H4H)) VH: QVQLVESGGGVVQPGRSLRLSCAASGFSFSDYVMHWVRQAPGKGLEWVASIWFDGSNELYADSVKGRFTISRDNSKNTLFLQMNSLRAEDTAVYYCAKKGVLVATSAFHIWGQGTMVTVSS VL: AIQMTQSPSSLSASVGDRVTITCRASQNINNYLNWYHQKPGKAPNLLIYAASSLQSGVPSRFSGSGSGTDYTLTISSLQPEDFGNYYCQQSYSTSMYTFGQGTKLEIK yes

Queued: H4H2364S (antibody, human IgG4, V domains shown, human IgG4 Fc (H4H)) VH: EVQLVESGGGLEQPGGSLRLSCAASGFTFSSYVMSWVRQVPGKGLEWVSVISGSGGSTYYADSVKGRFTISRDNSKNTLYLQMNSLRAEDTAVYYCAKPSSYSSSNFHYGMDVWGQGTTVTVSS VL: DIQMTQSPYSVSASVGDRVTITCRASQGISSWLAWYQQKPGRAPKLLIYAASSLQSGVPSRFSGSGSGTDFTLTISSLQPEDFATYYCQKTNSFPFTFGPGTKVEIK yes
